Data credit: patent US4386103A

test system: Staphylococcus epidermidis; test: Contact germicidal screen, Staphylococcus epidermidis ATCC No. 12228; type: cell-based; settings: 100 PPM; 0.1M NaOAc pH 4.6
Metric: Sterilization Time (summary) (min)
Numbers only; they are read as min.

CC(C)(COC(=O)CCCC(=O)O)N(Cl)Cl [(V)]; 2.5
CC(C)(CCC(=O)O)N(Cl)Cl [(III), 4-Dichloroamino-4-methylvaleric acid]; 0.5
CC(C)(CC(=O)O)N(Cl)Cl [(II)]; 0.5

// Sterilization Time (summary) lookup, key: CC(C)(COC(=O)CCC(=O)O)N(Cl)Cl [(IV)]
2.5

* * *

Listing: Sterilization Time (summary) of selected molecules
tested on: Salmonella typhimurium; assay: Contact germicidal screen, Salmonella typhimurium ATCC No. 13311; assay type: cell-based; settings: 1000 PPM with 50% Horse Serum; 0.1M NaOAc pH 4.6
The response must be a number in min with no trailing unit.

CC(C)(CC(=O)O)N(Cl)Cl; 0.5
CC(C)(CCC(=O)O)N(Cl)Cl; 0.5
CC(C)(COC(=O)CCC(=O)O)N(Cl)Cl; 2.5

Now turn to the next molecule.
# Sterilization Time (summary) lookup, item CC(C)(COC(=O)CCCC(=O)O)N(Cl)Cl
2.5

* * *

Quick reference: Sterilization Time (summary) of the listed items.
test system: Pseudamonas aeruginosa; assay: Contact germicidal screen, Pseudamonas aeruginosa ATCC No. 14502; format: cell-based; settings: 10 PPM; 0.1M NaOAc pH 4.6
Field: numeric (min). Do not append units.

Please review the following examples before continuing.
CC(C)(CCC(=O)O)N(Cl)Cl [(III), 4-Dichloroamino-4-methylvaleric acid]; 2.5
CC(C)(COC(=O)CCC(=O)O)N(Cl)Cl [(IV)]; 5.0
CC(C)(CC(=O)O)N(Cl)Cl [(II)]; 2.5

Now for another entry.
Need Sterilization Time (summary), item CC(C)(COC(=O)CCCC(=O)O)N(Cl)Cl [(V)]
5.0

* * *

tested on: Pseudamonas aeruginosa; test: Contact germicidal screen, Pseudamonas aeruginosa ATCC No. 14502; format: cell-based; conditions: 100 PPM; 0.1M NaOAc pH 4.6
Metric: Sterilization Time (summary) (min)
Kindly answer with a numeric value in min, unit omitted.

Use the examples below as a reference point.
CC(C)(CCC(=O)O)N(Cl)Cl; 0.5
CC(C)(COC(=O)CCC(=O)O)N(Cl)Cl; 2.5
CC(C)(COC(=O)CCCC(=O)O)N(Cl)Cl; 2.5

Next up:
Query (compound): CC(C)(CC(=O)O)N(Cl)Cl ; field requested: Sterilization Time (summary)
0.5

* * *

system: Salmonella typhimurium; assay: Contact germicidal screen, Salmonella typhimurium ATCC No. 13311; format: cell-based; settings: 100 PPM; 0.1M NaOAc pH 4.6
Metric: Sterilization Time (summary) (min)
I only need the number, in min, no unit after it.

CC(C)(CCC(=O)O)N(Cl)Cl; 0.5
CC(C)(CC(=O)O)N(Cl)Cl; 0.5
CC(C)(COC(=O)CCCC(=O)O)N(Cl)Cl; 0.5

Now look at this one.
Field request: Sterilization Time (summary) | item: CC(C)(COC(=O)CCC(=O)O)N(Cl)Cl
0.5

* * *

assay: Stability of chloroamino acids in pH 4 acetate buffer at 34° C.; format: physicochemical; details: read-out: Stability (t1/2) (converted)
Metric: half-life (days)
Reply numerically in days, unit not repeated.

The cases that follow already have their half-life on record.
CC(C)(COC(=O)CCC(=O)O)N(Cl)Cl [drawing 17]; 300
CC(C)(CC(=O)O)N(Cl)Cl; 1.21

Please turn your attention to the following entry.
Which half-life is reported for this compound? CC(C)(CCC(=O)O)N(Cl)Cl
57
